# credit: patent US20130089544A1

target: human ErbB2, full length, on cells (human, UniProt P04626 23-1255); assay: cell-based or functional assay
measurementLabel: EC50 (ng/ml) n1, inhibition of Heregulin-induced ErbB2 phosphorylation in MCF7 cells (ng/mL)
Hi! Could you send only the number? It should be in ng/mL, unit omitted.

Use these answered entries as a reference point.
monoclonal antibody 1.39 (antibody, V domains shown, Fully human IgG (gamma/kappa) from a XenoMouse XM3B-3 hybridoma; constant regions not tied to it; also called 1.39.1; 1.39.2) VH: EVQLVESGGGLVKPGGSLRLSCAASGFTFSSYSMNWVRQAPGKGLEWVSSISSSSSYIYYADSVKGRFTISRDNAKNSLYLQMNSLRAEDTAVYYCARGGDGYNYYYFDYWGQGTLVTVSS VL: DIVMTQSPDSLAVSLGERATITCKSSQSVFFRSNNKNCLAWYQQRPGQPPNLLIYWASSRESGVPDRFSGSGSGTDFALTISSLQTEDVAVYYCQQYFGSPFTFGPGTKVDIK ... 46.9
monoclonal antibody 1.20 (antibody, V domains shown, Fully human IgG (gamma/kappa) from a XenoMouse XM3B-3 hybridoma; constant regions not tied to it; also called 1.20.1; 1.19) VH: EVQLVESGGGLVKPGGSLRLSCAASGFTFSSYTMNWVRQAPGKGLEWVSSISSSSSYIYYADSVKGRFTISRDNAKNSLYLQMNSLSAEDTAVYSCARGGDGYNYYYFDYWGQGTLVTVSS VL: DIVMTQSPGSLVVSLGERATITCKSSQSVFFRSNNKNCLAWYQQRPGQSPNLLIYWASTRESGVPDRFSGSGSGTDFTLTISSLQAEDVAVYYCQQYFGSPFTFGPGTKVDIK ... 15.5

In the following, a different binder is considered.
So what does the record say about EC50 (ng/ml) n1, inhibition of Heregulin-induced ErbB2 phosphorylation in MCF7 cells for monoclonal antibody 1.18.1 (antibody, V domains shown, Fully human IgG (gamma/kappa) from a XenoMouse XM3B-3 hybridoma; constant regions not tied to it) VH: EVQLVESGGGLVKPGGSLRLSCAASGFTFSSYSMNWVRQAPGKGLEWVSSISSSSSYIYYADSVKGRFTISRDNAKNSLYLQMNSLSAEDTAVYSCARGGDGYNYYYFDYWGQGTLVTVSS VL: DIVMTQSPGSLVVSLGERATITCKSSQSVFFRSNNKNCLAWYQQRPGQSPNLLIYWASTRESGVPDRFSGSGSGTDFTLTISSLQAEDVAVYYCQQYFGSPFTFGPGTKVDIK ? 4.2
